- PROTOCOL_TEXT: Caco-2 cell homogenate stability assay
- Format: in vitro ADME, human
- CONDITION_SET: human, Caco-2, pH 7.4, Caco-2 cell homogenate, 37°C, mean ± SEM; read-out: t 1/2 (min, Caco-2)
Square brackets hold non-standard residues; d marks the D form. Peptide text beside a SMILES is read from it. ξ: configuration not given here. Dmt = Cc1cc(O)cc(C)c1C[C@H](N)C(=O)O; ξGly(octyl) = CCCCCCCCC(N)C(=O)O
RECORDED_ENDPOINT: half-life (h)
Response body: numeric value in h, unit text excluded.

COMPOUND	half-life (h)
Cc1cc(O)cc(C)c1C[C@H](N)C(=O)N1CCC[C@H]1C(=O)N[C@@H](Cc1c[nH]c2ccccc12)C(=O)N[C@@H](Cc1ccccc1)C(N)=O [Compound 2]	0.402

Please find the next compound below.
### Prompt Bench note: what half-life did CCCCCCCCC(N)C(=O)N[C@@H](Cc1c(C)cc(O)cc1C)C(=O)N1CCC[C@H]1C(=O)N[C@@H](Cc1c[nH]c2ccccc12)C(=O)N[C@@H](Cc1ccccc1)C(N)=O (some centres unmarked) [Compound 4] (H-[ξGly(octyl)][Dmt]PWF-NH2) show?
### Response 1.6
